Tested on: KM12
Assay: Growth inhibition of human KM12 cells after 48 hrs by sulforhodamine B colorimetric assay
Format: functional
Settings: KM12, 48 h
Would you kindly list GI50 for each of these molecules?

Use the examples below as a reference point.
>  <molecule>
CCCCCCCCCCCC[C@@H](O)[C@H]1CC[C@H]([C@H](O)CCCCCCCCCCNC(=O)c2cccs2)O1

>  <GI50>
3.09 µM

$$$$
>  <molecule>
CCCCCCCCCCCC[C@@H](O)[C@H]1CC[C@H]([C@H](O)CCCCCCCCCCNC(=O)c2cncs2)O1

>  <GI50>
> 100 µM

$$$$
>  <molecule>
CCCCCCCCCCCC[C@@H](O)[C@H]1CC[C@H]([C@H](O)CCCCCCCCCCCCC2=C[C@H](C)OC2=O)O1 [REL-SOLAMIN]

>  <GI50>
> 100 µM

$$$$

Could I get GI50 for every one of these entries?
1. CCCCCCCCCCCC[C@@H](O)[C@H]1CC[C@H]([C@H](O)CCCCCCCCCCNC(=O)c2ccco2)O1
2. CCCCCCCCCCCC[C@@H](O)[C@H]1CC[C@H]([C@H](O)CCCCCCCCCCNC(=O)c2ccsc2)O1
3. CCCCCCCCCCCC[C@@H](O)[C@H]1CC[C@H]([C@H](O)CCCCCCCCCCNC(=O)c2ccoc2)O1
4. CCCCCCCCCCCC[C@@H](O)[C@H]1CC[C@H]([C@H](O)CCCCCCCCCCNC(=O)c2ccnn2C)O1

a:
1. > 100 µM
2. 3.02 µM
3. > 100 µM
4. > 100 µM
